# System: Mus musculus
# TEST DESCRIPTION: Neurotoxicity in CF1 mouse at 300 mg/kg, ip after 4 hrs by rotarod test
# Assay type: toxicity, organism-based
# Set-up: dose 300 mg/kg, route intraperitoneal
# ASSAY CONTEXT: in vivo

| CPD SMILES | Activity |
| --- | --- |
| CCCOc1c(C(=O)N/N=C/c2ccc(-c3ccccc3)cc2)sc(C(=O)N/N=C/c2ccc(-c3ccccc3)cc2)c1OCCC | Non-toxic |
| CCCOc1c(C(=O)N/N=C\c2c[nH]c3ccccc23)sc(C(=O)N/N=C/c2c[nH]c3ccccc23)c1OCCC | Non-toxic |
| CCCOc1c(C(=O)N/N=C(\C)c2c[nH]c3ccccc23)sc(C(=O)N/N=C(\C)c2c[nH]c3ccccc23)c1OCCC | Non-toxic |
| CCCOc1c(C(=O)NN=C2CCCC2)sc(C(=O)NN=C2CCCC2)c1OCCC | Non-toxic |

---

# System: Mus musculus
# TEST DESCRIPTION: Neurotoxicity in CF1 mouse at 100 mg/kg, ip after 0.5 hrs by rotarod test
# Assay type: toxicity, organism-based
# Set-up: dose 100 mg/kg, route intraperitoneal
# ASSAY CONTEXT: in vivo
QUANTITY MEASURED: Activity

| CPD SMILES | QUANTITY MEASURED | OBSERVED RESULT |
| --- | --- | --- |
| CCCOc1c(C(=O)N/N=C(\C)c2ccccc2)sc(C(=O)N/N=C(\C)c2ccccc2)c1OCCC | Activity | Non-toxic |
| CCCOc1c(C(=O)N/N=C\c2cccs2)sc(C(=O)N/N=C/c2cccs2)c1OCCC | Activity | Toxic |
| CCCOc1c(C(=O)N/N=C\c2cc(OC)c(OC)c(OC)c2)sc(C(=O)N/N=C/c2cc(OC)c(OC)c(OC)c2)c1OCCC | Activity | Non-toxic |

---

# System: Mus musculus
# TEST DESCRIPTION: Neurotoxicity in CF1 mouse at 300 mg/kg, ip after 0.5 hrs by rotarod test
# Assay type: toxicity, organism-based
# Design: dose 300 mg/kg, route intraperitoneal
# ASSAY CONTEXT: in vivo

| MOLECULE | STUDY TARGET | Activity |
| --- | --- | --- |
| CCCOc1c(C(=O)N/N=C(/c2ccccc2)c2ccncc2)sc(C(=O)N/N=C(\c2ccccc2)c2ccncc2)c1OCCC | Mus musculus | Non-toxic |
| CCCOc1c(C(=O)NN=C(c2ccccc2)c2ccccc2)sc(C(=O)NN=C(c2ccccc2)c2ccccc2)c1OCCC | Mus musculus | Non-toxic |
| CCCOc1c(C(=O)NN=C2CC(C)Sc3sccc32)sc(C(=O)NN=C2CC(C)Sc3sccc32)c1OCCC (stereo not drawn) | Mus musculus | Toxic |
| CCCOc1c(C(=O)N/N=C\c2c[nH]c3ccccc23)sc(C(=O)N/N=C/c2c[nH]c3ccccc23)c1OCCC | Mus musculus | Toxic |
| CCCOc1c(C(=O)N/N=C(\C)c2ccccn2)sc(C(=O)N/N=C(\C)c2ccccn2)c1OCCC | Mus musculus | Non-toxic |
| CCCOc1c(C(=O)N/N=C(\C)c2nccs2)sc(C(=O)N/N=C(\C)c2nccs2)c1OCCC | Mus musculus | Non-toxic |
| CCCOc1c(C(=O)N/N=C/c2ccc(-c3ccccc3)cc2)sc(C(=O)N/N=C/c2ccc(-c3ccccc3)cc2)c1OCCC | Mus musculus | Toxic |
| CCCOc1c(C(=O)N/N=C\c2ccc([N+](=O)[O-])o2)sc(C(=O)N/N=C/c2ccc([N+](=O)[O-])o2)c1OCCC | Mus musculus | Toxic |

---

# System: Mus musculus
# TEST DESCRIPTION: Neurotoxicity in CF1 mouse at 300 mg/kg, ip after 4 hrs by rotarod test
# Format: toxicity, organism-based
# Set-up: dose 300 mg/kg, route intraperitoneal
# ASSAY CONTEXT: in vivo
QUANTITY MEASURED: Activity

| COMPOUND | OBSERVED RESULT |
| --- | --- |
| CCCC/C=N/NC(=O)c1sc(C(=O)N/N=C/CCCC)c(OCCC)c1OCCC | Non-toxic |
| CCCOc1c(C(=O)N/N=C\c2cccs2)sc(C(=O)N/N=C/c2cccs2)c1OCCC | Toxic |
| CCCOc1c(C(=O)N/N=C\c2cc(OC)c(OC)c(OC)c2)sc(C(=O)N/N=C/c2cc(OC)c(OC)c(OC)c2)c1OCCC | Non-toxic |
| CCCOc1c(C(=O)NN=C2CC(C)Sc3sc(S(N)(=O)=O)cc32)sc(C(=O)NN=C2CC(C)Sc3sc(S(N)(=O)=O)cc32)c1OCCC (stereo not drawn) | Toxic |
| CCCOc1c(C(=O)NN=C(c2ccccc2)c2ccccc2)sc(C(=O)NN=C(c2ccccc2)c2ccccc2)c1OCCC | Non-toxic |
| CCCOc1c(C(=O)N/N=C\c2ccc3c(c2)Cc2ccccc2-3)sc(C(=O)N/N=C/c2ccc3c(c2)Cc2ccccc2-3)c1OCCC | Toxic |
| CCCOc1c(C(=O)N/N=C(\C)c2ccccn2)sc(C(=O)N/N=C(\C)c2ccccn2)c1OCCC | Non-toxic |
| CCCOc1c(C(=O)N/N=C(\C)c2ccc[nH]2)sc(C(=O)N/N=C(\C)c2ccc[nH]2)c1OCCC | Non-toxic |

---

# Test system: Mus musculus
# TEST DESCRIPTION: Neurotoxicity in CF1 mouse at 100 mg/kg, ip after 0.5 hrs by rotarod test
# Format: toxicity, organism-based
# Set-up: dose 100 mg/kg, route intraperitoneal
# ASSAY CONTEXT: in vivo

| COMPOUND | STUDY TARGET | Activity |
| --- | --- | --- |
| CCCOc1c(C(=O)NN=C2CCCC2)sc(C(=O)NN=C2CCCC2)c1OCCC | Mus musculus | Non-toxic |
| CCCOc1c(C(=O)N/N=C(\C)c2cc3ccccc3oc2=O)sc(C(=O)N/N=C(\C)c2cc3ccccc3oc2=O)c1OCCC | Mus musculus | Toxic |
| CCCOc1c(C(=O)N/N=C/c2ccc3c(c2)c2ccccc2n3CC)sc(C(=O)N/N=C/c2ccc3c(c2)c2ccccc2n3CC)c1OCCC | Mus musculus | Toxic |
| CCCOc1c(C(=O)N/N=C(\C)c2ccccn2)sc(C(=O)N/N=C(\C)c2ccccn2)c1OCCC | Mus musculus | Non-toxic |
| CCCOc1c(C(=O)N/N=C(\C)c2cccs2)sc(C(=O)N/N=C(\C)c2cccs2)c1OCCC | Mus musculus | Non-toxic |
| CCCC/C=N/NC(=O)c1sc(C(=O)N/N=C/CCCC)c(OCCC)c1OCCC | Mus musculus | Toxic |
| CCCOc1c(C(=O)N/N=C/c2ccc(-c3ccccc3)cc2)sc(C(=O)N/N=C/c2ccc(-c3ccccc3)cc2)c1OCCC | Mus musculus | Toxic |
| CCCOc1c(C(=O)N/N=C(\C)c2c[nH]c3ccccc23)sc(C(=O)N/N=C(\C)c2c[nH]c3ccccc23)c1OCCC | Mus musculus | Non-toxic |
| CCCOc1c(C(=O)N/N=C(\C)c2nccs2)sc(C(=O)N/N=C(\C)c2nccs2)c1OCCC | Mus musculus | Non-toxic |
| CCCOc1c(C(=O)N/N=C\c2c[nH]c3ccccc23)sc(C(=O)N/N=C/c2c[nH]c3ccccc23)c1OCCC | Mus musculus | Toxic |
| CCCOc1c(C(=O)N/N=C(\c2ccccc2)c2ccc(Br)s2)sc(C(=O)N/N=C(\c2ccccc2)c2ccc(Br)s2)c1OCCC | Mus musculus | Toxic |
| CCCOc1c(C(=O)N/N=C/c2ccc3cc(OC)ccc3c2)sc(C(=O)N/N=C/c2ccc3cc(OC)ccc3c2)c1OCCC | Mus musculus | Non-toxic |
| CCCOc1c(C(=O)NN=C2CC(C)Sc3sccc32)sc(C(=O)NN=C2CC(C)Sc3sccc32)c1OCCC (stereo unspecified) | Mus musculus | Toxic |
| CCCOc1c(C(=O)N/N=C(/c2ccccc2)c2ccncc2)sc(C(=O)N/N=C(\c2ccccc2)c2ccncc2)c1OCCC | Mus musculus | Non-toxic |
| CCCOc1c(C(=O)NN=C2CC(C)Sc3sc(S(N)(=O)=O)cc32)sc(C(=O)NN=C2CC(C)Sc3sc(S(N)(=O)=O)cc32)c1OCCC (stereo unspecified) | Mus musculus | Toxic |
| CCCOc1c(C(=O)N/N=C\c2ccccc2)sc(C(=O)N/N=C/c2ccccc2)c1OCCC | Mus musculus | Non-toxic |

---

# System: Mus musculus
# TEST DESCRIPTION: Neurotoxicity in CF1 mouse at 300 mg/kg, ip after 0.5 hrs by rotarod test
# Assay type: toxicity, organism-based
# Parameters: dose 300 mg/kg, route intraperitoneal
# ASSAY CONTEXT: in vivo

| CPD SMILES | STUDY TARGET | Activity |
| --- | --- | --- |
| CCCOc1c(C(=O)N/N=C(\C)c2ccc[nH]2)sc(C(=O)N/N=C(\C)c2ccc[nH]2)c1OCCC | Mus musculus | Non-toxic |
| CCCOc1c(C(=O)N/N=C(\C)c2cc3ccccc3oc2=O)sc(C(=O)N/N=C(\C)c2cc3ccccc3oc2=O)c1OCCC | Mus musculus | Toxic |
| CCCOc1c(C(=O)N/N=C(\C)c2cccs2)sc(C(=O)N/N=C(\C)c2cccs2)c1OCCC | Mus musculus | Non-toxic |
| CCCOc1c(C(=O)NN=C2CCCCC2)sc(C(=O)NN=C2CCCCC2)c1OCCC | Mus musculus | Non-toxic |
